tested on: Fibroblast; assay: Multiplex assay against human fibroblast; format: toxicity, cell-based; settings: 12 h, 1 µM, compound concentration 1 uM, replicate 2
The following compounds are listed with their measured Population Healthy Nuclei (%) values.

[
  {
    "compound": "CCc1nn2c(C)cc(C)nc2c1Cc1ccc(-c2nnc(C3CCNCC3)o2)cc1",
    "Population Healthy Nuclei (%)": "46%"
  },
  {
    "compound": "CN(C)C/C=C/C(=O)Nc1ccc(C(=O)N2CCCC(Nc3ncc(Cl)c(-c4c[nH]c5ccccc45)n3)C2)cc1 (configuration not stated)",
    "Population Healthy Nuclei (%)": "53%"
  },
  {
    "compound": "Cc1sc2c(c1C)C(c1ccc(Cl)cc1)=N[C@H](CC(=O)OC(C)(C)C)c1nnc(C)n1-2",
    "Population Healthy Nuclei (%)": "51%"
  },
  {
    "compound": "Cc1cc(NC(=O)NCCN2CCC(O)(Cc3ccccc3)CC2)c2ccccc2n1",
    "Population Healthy Nuclei (%)": "44%"
  },
  {
    "compound": "Cc1nn(C)c2nc(NNC(=O)Nc3cc(Cl)nc(Cl)c3)cc(C(C)C)c12",
    "Population Healthy Nuclei (%)": "53%"
  },
  {
    "compound": "Nc1nc(CC(=O)Nc2ccc(CCNC[C@H](O)c3ccccc3)cc2)cs1",
    "Population Healthy Nuclei (%)": "52%"
  },
  {
    "compound": "COc1cc(C(=O)N2CC[C@@H](O)[C@@H](N)C2)cc2nc(-c3cc4ccccc4n3CC3CC3)n(C)c12.Cl",
    "Population Healthy Nuclei (%)": "44%"
  },
  {
    "compound": "Cl.Cl.OCCOCCN1CCN(C(c2ccccc2)c2ccc(Cl)cc2)CC1 (configuration not stated) [HYDROXYZINE HYDROCHLORIDE]",
    "Population Healthy Nuclei (%)": "57%"
  },
  {
    "compound": "CC(F)(F)CN1CCOc2c(nn(-c3ccccc3Cl)c2-c2ccc(Cl)cc2)C1=O",
    "Population Healthy Nuclei (%)": "48%"
  },
  {
    "compound": "C[C@H](NC(=O)CNC(=O)c1cccc(Cl)c1)c1ccccc1",
    "Population Healthy Nuclei (%)": "53%"
  },
  {
    "compound": "CC(C)(O)C(=O)N1CCN(c2ccc(C(F)(F)F)c(C3=C(c4c[nH]c5ccccc45)C(=O)NC3=O)c2)CC1",
    "Population Healthy Nuclei (%)": "46%"
  },
  {
    "compound": "CCn1c(-c2nc3cc(C(=O)N4CCCC(N)C4)ccc3n2C)cc2ccccc21.Cl (configuration not stated)",
    "Population Healthy Nuclei (%)": "54%"
  },
  {
    "compound": "Cc1cc(=O)n(C)c2cc(N3C(=O)CC[C@H](NS(=O)(=O)CC(C)C)[C@H]3c3ccc(Cl)cc3)ccc12",
    "Population Healthy Nuclei (%)": "38%"
  },
  {
    "compound": "COc1c(Nc2ccc(S(C)(=O)=O)nc2C)ncnc1OC1CCN(C(=O)OC(C)C)CC1",
    "Population Healthy Nuclei (%)": "40%"
  },
  {
    "compound": "C[C@@H]1CC(=O)Nc2cccc(-c3ccc4c(c3)c(-c3cnn(C)c3)nn4C)c2N1",
    "Population Healthy Nuclei (%)": "47%"
  },
  {
    "compound": "COCCn1c(C)c(C)s/c1=N\\C(=O)C1C(C)(C)C1(C)C",
    "Population Healthy Nuclei (%)": "57%"
  },
  {
    "compound": "COCCCN1CCC(NC(=O)c2cc(Cl)c(N)c3c2OCC3)CC1 [PRUCALOPRIDE]",
    "Population Healthy Nuclei (%)": "48%"
  }
]
